test: AUC (24hrs) in HIV-negative human at 400 mg administered every 24 hrs; assay type: ADME, organism-based; details: plasma
quantity.kind: AUC at 24 h (ng·h/mL)
Note: unit ng·h/mL is implicit; provide only the numeric part.

Query: AUC at 24 h; subject: COC(=O)N[C@H](C(=O)N[C@@H](Cc1ccccc1)[C@@H](O)CN(Cc1ccc(-c2ccccn2)cc1)NC(=O)[C@@H](NC(=O)OC)C(C)(C)C)C(C)(C)C [ATAZANAVIR]
29300

* * *

assay: Cmax in HIV-negative human at 600 mg, po administered every 24 hrs coadministered with 300 mg of atazanavir every 12 hrs; type: ADME, organism-based; design: dose 600 mg, route oral; settings: in vivo
quantity.kind: Cmax (ng/mL)
Note: unit ng/mL is implicit; provide only the numeric part.

>>> value_observed("CO[C@H]1/C=C/O[C@@]2(C)Oc3c(C)c(O)c4c(O)c(c(/C=N/N5CCN(C)CC5)c(O)c4c3C2=O)NC(=O)/C(C)=C\\C=C\\[C@H](C)[C@H](O)[C@@H](C)[C@@H](O)[C@@H](C)[C@H](OC(C)=O)[C@@H]1C [RIFAMPIN]")
9490

Here is another compound to look at.
Query: Cmax; subject: CO[C@H]1/C=C/O[C@@]2(C)Oc3c(C)c(O)c4c(O)c(c(/C=N/N5CCN(C)CC5)c(O)c4c3C2=O)NC(=O)/C(C)=C\C=C\[C@H](C)[C@H](O)[C@@H](C)[C@@H](O)[C@@H](C)[C@H](O)[C@@H]1C
1650
